- TESTED_ON: pre-existing anti-scFv903 antibodies in human serum H63 (human)
- PROCEDURE_SUMMARY: competition ADA bridging ELISA
Reported signal change in competition ELISA (% reduction in OD) values for a set of binders
Report only the number, with the unit % understood.

>>> result("scFv105 (scFv) scFv: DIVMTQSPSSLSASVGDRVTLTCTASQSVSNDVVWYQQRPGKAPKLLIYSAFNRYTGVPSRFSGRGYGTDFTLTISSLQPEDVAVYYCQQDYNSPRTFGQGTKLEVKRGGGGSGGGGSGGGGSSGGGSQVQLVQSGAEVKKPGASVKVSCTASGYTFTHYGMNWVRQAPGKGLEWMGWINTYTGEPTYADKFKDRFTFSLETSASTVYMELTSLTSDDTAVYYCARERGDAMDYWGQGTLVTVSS")
-80
>>> result("scFv 903 (scFv) scFv: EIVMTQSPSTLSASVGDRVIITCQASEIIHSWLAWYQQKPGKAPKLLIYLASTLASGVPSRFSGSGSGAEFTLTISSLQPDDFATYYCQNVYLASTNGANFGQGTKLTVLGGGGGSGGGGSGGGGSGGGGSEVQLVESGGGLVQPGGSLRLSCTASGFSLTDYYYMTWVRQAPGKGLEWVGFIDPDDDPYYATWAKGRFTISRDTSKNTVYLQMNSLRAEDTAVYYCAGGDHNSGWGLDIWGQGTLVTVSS")
-97

Now let's try a different one.
Asked: Report signal change in competition ELISA (% reduction in OD), nothing else, for this binder: scFv 791 (scFv) scFv: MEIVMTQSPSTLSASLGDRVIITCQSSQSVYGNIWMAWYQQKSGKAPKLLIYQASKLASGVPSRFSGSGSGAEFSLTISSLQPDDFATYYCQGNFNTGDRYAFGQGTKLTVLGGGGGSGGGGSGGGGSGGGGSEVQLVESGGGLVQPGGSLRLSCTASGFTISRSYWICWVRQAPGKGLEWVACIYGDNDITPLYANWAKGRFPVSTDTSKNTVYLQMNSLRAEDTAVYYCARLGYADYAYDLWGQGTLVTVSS
Given back: -20

Every entry's value here was drawn from patent US20210214461A1.
